Target: T1, NativeRPtag(large)_with_Tags_and_Cys (Thermoanaerobacter tengcongensis)
T1 chain: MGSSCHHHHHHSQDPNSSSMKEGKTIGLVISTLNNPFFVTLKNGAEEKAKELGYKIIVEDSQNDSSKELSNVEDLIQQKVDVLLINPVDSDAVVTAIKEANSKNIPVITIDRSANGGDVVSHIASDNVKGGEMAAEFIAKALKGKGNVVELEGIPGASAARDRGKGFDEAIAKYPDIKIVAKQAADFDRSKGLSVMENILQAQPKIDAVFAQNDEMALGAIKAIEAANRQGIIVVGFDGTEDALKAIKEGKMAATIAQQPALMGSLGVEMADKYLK
Experiment: fluorescence anisotropy; Tween20 (2%)
measured-attribute: pKd
When answering, recall that pKd equals minus log10 of the concentration in mol/L, and write that number alone.

Exam item: Annotate the binder PAELKLITK (modifications not checked) [RPtag(small) Nd8, Cd4] with its measured pKd.
Marked response: 7.35
